Numbers sourced from paper PMC9127186.

Target: human OATP1B1 (Homo sapiens, UniProt Q9Y6L6)
Sequence (Q9Y6L6 whole entry): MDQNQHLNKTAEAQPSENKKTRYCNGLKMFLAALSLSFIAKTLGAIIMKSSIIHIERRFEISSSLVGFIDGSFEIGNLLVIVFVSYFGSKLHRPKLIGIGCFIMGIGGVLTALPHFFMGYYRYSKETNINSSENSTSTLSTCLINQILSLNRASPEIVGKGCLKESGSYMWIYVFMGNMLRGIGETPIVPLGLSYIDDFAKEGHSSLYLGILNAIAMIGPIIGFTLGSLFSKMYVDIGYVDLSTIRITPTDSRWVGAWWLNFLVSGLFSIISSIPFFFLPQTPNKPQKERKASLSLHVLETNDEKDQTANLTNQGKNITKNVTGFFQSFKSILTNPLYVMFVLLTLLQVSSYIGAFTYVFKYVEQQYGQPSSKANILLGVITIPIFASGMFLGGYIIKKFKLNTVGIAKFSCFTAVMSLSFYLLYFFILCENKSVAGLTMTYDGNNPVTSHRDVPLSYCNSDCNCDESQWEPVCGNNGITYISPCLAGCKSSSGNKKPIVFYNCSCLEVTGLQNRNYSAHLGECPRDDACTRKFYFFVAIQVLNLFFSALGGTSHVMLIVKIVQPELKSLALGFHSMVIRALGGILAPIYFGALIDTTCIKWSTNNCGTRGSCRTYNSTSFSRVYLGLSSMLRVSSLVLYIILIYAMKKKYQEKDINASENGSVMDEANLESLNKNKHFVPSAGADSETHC
Assay: Cellular transport assay, HEK-293 cells expressing human OATP1B1
assayEndpoint: substrate of human OATP1B1

Tell me the measured substrate of human OATP1B1 of `O=C(O)Cc1c(/C=C/C(=O)O[C@H](Cc2ccc(O)c(O)c2)C(=O)O)ccc(O)c1O` , please. substrates

Please give the result for `O=C(/C=C/c1ccc(O)c(O)c1)O[C@H](Cc1ccc(O)c(O)c1)C(=O)O` too. substrates

Also check `O=C(/C=C/c1ccc(O)c2c1[C@H](C(=O)O)[C@@H](c1ccc(O)c(O)c1)O2)O[C@H](Cc1ccc(O)c(O)c1)C(=O)O` substrates

---

Molecular target: rat Oat1 (Rattus norvegicus)
Sequence (O35956 whole entry): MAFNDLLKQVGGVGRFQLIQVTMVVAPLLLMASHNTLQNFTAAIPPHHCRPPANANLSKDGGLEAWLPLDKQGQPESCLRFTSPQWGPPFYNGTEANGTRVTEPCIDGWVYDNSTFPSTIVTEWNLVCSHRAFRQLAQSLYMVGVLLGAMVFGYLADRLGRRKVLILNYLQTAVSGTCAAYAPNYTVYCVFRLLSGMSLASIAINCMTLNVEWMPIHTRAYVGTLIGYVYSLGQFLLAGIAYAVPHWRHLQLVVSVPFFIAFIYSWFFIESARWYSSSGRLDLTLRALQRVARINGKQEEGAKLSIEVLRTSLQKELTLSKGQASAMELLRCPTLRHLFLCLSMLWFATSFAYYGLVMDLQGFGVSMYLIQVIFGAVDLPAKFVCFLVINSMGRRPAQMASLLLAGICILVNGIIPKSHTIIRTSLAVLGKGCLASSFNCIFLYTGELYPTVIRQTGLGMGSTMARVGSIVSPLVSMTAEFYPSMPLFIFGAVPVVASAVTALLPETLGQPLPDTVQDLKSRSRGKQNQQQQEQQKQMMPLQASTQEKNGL
Assay: Cellular transport assay, HEK-293 cells expressing rat Oat1
Conditions: rat renal basolateral uptake Oat1; 5 min incubation, concentrations in Table 1
assayEndpoint: K m (µM)
# value in µM; strip the unit string

Query for rat Oat1 (Rattus norvegicus): what K m does the record show for O=C(O)C(O)Cc1ccc(O)c(O)c1 (stereo not shown) [Tanshinol, tanshinol] ? 154

And O=C(O)c1ccc(O)c(O)c1 [Protocatechuic acid, protocatechuic acid] ? 110

Query O=C(/C=C/c1ccc(O)c(O)c1)O[C@H](Cc1ccc(O)c(O)c1)C(=O)O [Rosmarinic acid, rosmarinic acid] next 59.2

And for O=C(O)Cc1c(/C=C/C(=O)O[C@H](Cc2ccc(O)c(O)c2)C(=O)O)ccc(O)c1O [Salvianolic acid D, salvianolic acid D] ? 24.4

---

Task for the reader: assign each of the following compounds its reported TransportTC/TransportMC ratio (net transport ratio).
Molecular target: rat Oct3 (Rattus norvegicus, UniProt O88446)
Sequence (O88446 whole entry): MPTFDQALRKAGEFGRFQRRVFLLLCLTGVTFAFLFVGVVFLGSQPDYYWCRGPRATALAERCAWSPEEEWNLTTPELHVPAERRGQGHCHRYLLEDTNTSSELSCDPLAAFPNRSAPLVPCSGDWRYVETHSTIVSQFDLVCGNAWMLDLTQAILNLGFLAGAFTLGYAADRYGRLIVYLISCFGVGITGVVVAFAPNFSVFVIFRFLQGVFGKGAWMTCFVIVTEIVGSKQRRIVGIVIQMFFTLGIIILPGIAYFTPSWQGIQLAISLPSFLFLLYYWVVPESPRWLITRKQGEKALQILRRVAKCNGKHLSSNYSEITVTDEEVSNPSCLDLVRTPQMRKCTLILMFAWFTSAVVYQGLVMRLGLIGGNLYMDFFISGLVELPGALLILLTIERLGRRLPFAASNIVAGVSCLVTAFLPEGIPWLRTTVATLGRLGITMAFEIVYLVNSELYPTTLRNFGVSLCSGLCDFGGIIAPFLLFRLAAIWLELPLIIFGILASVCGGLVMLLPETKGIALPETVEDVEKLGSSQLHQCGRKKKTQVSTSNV
Test: Cellular transport assay, HEK-293 cells expressing rat Oct3
Settings: Danshen phenolic acid at 100 μM final concentration, 10 min; rat Oct3-transfected vs mock cells
Hey, just send me the number, nothing else.

Fill in the blank: the reported TransportTC/TransportMC ratio (net transport ratio) of `O=C(O)Cc1c(/C=C/C(=O)O[C@H](Cc2ccc(O)c(O)c2)C(=O)O)ccc(O)c1O` is ____. 0.93

Same for `O=C(O)c1ccc(O)c(O)c1` 0.85

Also need `O=C(/C=C/c1ccc(O)c(O)c1)O[C@H](Cc1ccc(O)c(O)c1)C(=O)O` , thanks. 0.74

Another compound to look at: `O=C(/C=C/c1ccc(O)c2c1[C@H](C(=O)O)[C@@H](c1ccc(O)c(O)c1)O2)O[C@H](Cc1ccc(O)c(O)c1)C(=O)O` 0.81

---

Molecular target: OATP1B3 (Homo sapiens, UniProt Q9NPD5)
Sequence (Q9NPD5 whole entry): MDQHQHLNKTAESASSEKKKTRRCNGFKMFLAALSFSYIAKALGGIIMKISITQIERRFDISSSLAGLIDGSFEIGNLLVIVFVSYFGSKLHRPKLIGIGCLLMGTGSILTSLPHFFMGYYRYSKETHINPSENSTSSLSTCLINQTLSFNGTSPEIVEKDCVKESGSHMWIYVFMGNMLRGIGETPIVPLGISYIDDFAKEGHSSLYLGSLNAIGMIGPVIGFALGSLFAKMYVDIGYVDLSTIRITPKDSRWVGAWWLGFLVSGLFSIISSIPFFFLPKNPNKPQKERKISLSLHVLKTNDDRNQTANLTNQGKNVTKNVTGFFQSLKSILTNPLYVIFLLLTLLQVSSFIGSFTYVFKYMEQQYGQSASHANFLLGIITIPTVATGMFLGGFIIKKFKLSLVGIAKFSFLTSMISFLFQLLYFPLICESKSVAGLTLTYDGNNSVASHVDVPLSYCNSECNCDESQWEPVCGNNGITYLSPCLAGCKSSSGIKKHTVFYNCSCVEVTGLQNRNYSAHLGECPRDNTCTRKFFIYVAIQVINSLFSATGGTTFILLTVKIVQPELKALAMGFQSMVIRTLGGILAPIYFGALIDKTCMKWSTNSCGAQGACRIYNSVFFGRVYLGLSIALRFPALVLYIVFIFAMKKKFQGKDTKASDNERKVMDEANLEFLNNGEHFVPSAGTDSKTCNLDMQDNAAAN
Experiment: Cellular transport assay, HEK-293 cells expressing human OATP1B3
assayEndpoint: substrate of human OATP1B3

# query: substrate of human OATP1B3 of entry `O=C(/C=C/c1ccc(O)c2c1[C@H](C(=O)O)[C@@H](c1ccc(O)c(O)c1)O2)O[C@H](Cc1ccc(O)c(O)c1)C(=O)O` substrates

# iterate: `O=C(/C=C/c1ccc(O)c(O)c1)O[C@H](Cc1ccc(O)c(O)c1)C(=O)O` substrates

Cool, now `O=C(O)Cc1c(/C=C/C(=O)O[C@H](Cc2ccc(O)c(O)c2)C(=O)O)ccc(O)c1O` substrates
